system.tested: Beta Secretase enzyme (BACE) (Homo sapiens, UniProt P56817)
Sequence (P56817 46-501): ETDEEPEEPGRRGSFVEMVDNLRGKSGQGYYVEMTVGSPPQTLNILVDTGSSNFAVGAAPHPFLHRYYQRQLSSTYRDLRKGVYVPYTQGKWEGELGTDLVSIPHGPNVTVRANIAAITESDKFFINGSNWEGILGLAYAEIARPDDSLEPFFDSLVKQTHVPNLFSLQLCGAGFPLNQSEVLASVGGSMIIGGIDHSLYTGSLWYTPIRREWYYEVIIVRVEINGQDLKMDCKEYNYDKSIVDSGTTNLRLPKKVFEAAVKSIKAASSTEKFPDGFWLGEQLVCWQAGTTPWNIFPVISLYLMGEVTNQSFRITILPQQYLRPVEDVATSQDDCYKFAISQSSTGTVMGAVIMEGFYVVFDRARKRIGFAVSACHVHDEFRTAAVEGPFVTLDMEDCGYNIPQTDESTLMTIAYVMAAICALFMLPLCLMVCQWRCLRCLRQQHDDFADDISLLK
test: In vitro enzymatic BACE FRET (fluorescence resonance energy transfer) assay;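 also: fluorescence read after 1 h with 50 nM quenched peptide substrate spanning the BACE cleavage site, in pH 4.2 acetate buffer containing 10% DMSO and nonionic detergent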
Type: biochemical
condition.notes: BACE enzyme assay; read-out: BACE1 FRET assay (IC50)
Record form. Attribute: pIC50. Fill in for each entry.
Scale: negative log10 of molar concentration, which is what pIC50 denotes.

### Prompt Return reported pIC50; argument: `CC(=O)N[C@@H](Cc1ccc(F)cc1)[C@H](O)CN[C@H]1CC2(CCC2)Oc2c1cc(CC(C)(C)C)nc2NCC(F)(F)F`
### Response 7.03

### Prompt Form field: reported pIC50 of `COCC(=O)N[C@@H](Cc1ccnc(C(F)(F)F)c1)[C@H](O)CN[C@H]1CC2(CCC2)Oc2ncc(CC(C)(C)C)cc21`
### Response 7.57

### Prompt # get_value(readout='pIC50', item= `CNc1nc(CC(C)(C)C)cc2c1OC1(CCC1)C[C@@H]2NC[C@@H](O)[C@H](Cc1cccc(F)c1)NC(=O)[C@@H](C)OC` )
### Response 7.38

### Prompt Bench note: what pIC50 did `CC(C)(C)Cc1cnc2c(c1)[C@@H](NC[C@@H](O)[C@H](Cc1cccc(F)c1)NC(=O)C(Cl)Cl)CC1(CCC1)O2` show?
### Response 8.39

### Prompt Suppose we examine the compound `CC(C)(C)Cc1cnc2c(c1)[C@@H](NC[C@@H](O)[C@H](Cc1ccc3c(c1)OCO3)NC(=O)C(Cl)Cl)CC1(CCC1)O2` ; what pIC50 value has been reported?
### Response 7.90

### Prompt Name the reported pIC50 value associated with the compound `COCC(=O)N[C@@H](Cc1ccc(F)cc1)[C@H](O)CN[C@H]1CC2(CCC2)Oc2ncc(CC(C)(C)C(F)(F)F)cc21`
### Response 8.43

### Prompt Value lookup for pIC50; key = `CC(=O)N[C@@H](Cc1ccc(F)cc1)[C@H](O)CN[C@H]1CC2(CCC2)Cc2ncc(CC(C)(C)C)cc21`
### Response 7.21

### Prompt Bench note: what pIC50 did `CO[C@H](C)C(=O)N[C@@H](Cc1ccc(F)cc1)[C@H](O)CN[C@H]1CC2(CCC2)Oc2c1cc(CC(C)(C)C)nc2NCC(F)(F)F` show?
### Response 6.50

### Prompt What does the data say about its pIC50? Entry: `CO[C@@H](C(=O)N[C@@H](Cc1ccc(F)cc1)[C@H](O)CN[C@H]1CC2(CCC2)Oc2ncc(CC(C)(C)C)cc21)C(F)(F)F`
### Response 6.59

### Prompt Which pIC50 is listed for `CO[C@H](C)C(=O)N[C@@H](Cc1ccc2c(c1)OCO2)[C@H](O)CN[C@H]1CC2(CCC2)Oc2c1cc(CC(C)(C)C)nc2Cl` ?
### Response 7.57

### Prompt Sample `COCC(=O)N[C@@H](Cc1ccc(F)cc1)[C@H](O)CN[C@H]1CC2(CCC2)Oc2c(F)cc(CC(C)(C)C#N)cc21` — what was its pIC50?
### Response 7.73

### Prompt Reported pIC50 for `CC(C)(C)Cc1cnc2c(c1)[C@@H](NC[C@@H](O)[C@H](Cc1cc(F)cc(F)c1)NC(=O)C(C)(Cl)Cl)CC1(CCC1)O2` : what is it?
### Response 7.86

### Prompt Dear colleague, I am looking for the recorded pIC50 of the following compound: `CC(=O)N[C@@H](Cc1ccccc1)[C@H](O)CN[C@H]1CC2(CCC2)Oc2c1cc(CC(C)(C)C)nc2N1CCC1`
### Response 7.48

### Prompt Which pIC50 value is on record for `CC(=O)N[C@@H](Cc1cccc(F)c1)[C@H](O)CN[C@H]1CC2(CCC2)Oc2ncc(OC(C)(F)F)cc21` ?
### Response 7.69

### Prompt Report pIC50 for `COCC(=O)N[C@@H](Cc1ccccc1)[C@H](O)CN[C@H]1CC2(CCC2)Oc2ncc(CC(C)(C)CF)cc21` please.
### Response 8.61

### Prompt # get_value(readout='pIC50', item= `CC(C)(C)Cc1cnc2c(c1)[C@@H](NC[C@@H](O)[C@H](Cc1cc(F)cc(F)c1)NC(=O)COCc1cncs1)CC1(CCC1)O2` )
### Response 8.52

### Prompt Entry `CC(=O)N[C@@H](Cc1ccc(F)cc1)[C@H](O)CN[C@H]1CC2(CCC2)Oc2ncc(CC(C)(C)C(F)F)cc21` has what pIC50?
### Response 7.72

### Prompt Record request: pIC50 value, item `COCC(=O)N[C@@H](Cc1ccc2c(c1)OCO2)[C@H](O)CN[C@H]1CC2(CCC2)Oc2c1cc(CC(C)(C)C)nc2Cl`
### Response 7.59

### Prompt Would you kindly share the measured pIC50 for COC(C)C(=O)NC(Cc1cc(F)cc(F)c1)C(O)CNC1CC2(CCC2)Oc2ncc(CC(C)(C)C)cc21 (stereo not shown) [compound 103] ?
### Response 8.00

### Prompt Recorded pIC50 of `COCC(=O)N[C@@H](Cc1ccc(F)cc1)[C@H](O)CN[C@H]1CC2(CCC2)Oc2c1cc(CC(C)(C)C)nc2C` , please.
### Response 6.70

### Prompt Endpoint output: pIC50 of `CC(=O)N[C@@H](Cc1ccc(F)c(OC(F)(F)F)c1)[C@H](O)CN[C@H]1CC2(CCC2)Oc2ncc(CC(C)(C)F)cc21` . Value?
### Response 8.31

### Prompt Request the reported pIC50 associated with `CC(=O)N[C@@H](Cc1cc(F)cc(F)c1)[C@H](O)CN[C@H]1CC2(CCC2)Oc2ncc(CC(C)(C)C#N)cc21`
### Response 8.35

### Prompt Query: pIC50; subject: CC(=O)NC(Cc1ccc2c(c1)OCO2)C(O)CNC1CC2(CC(C)C2)Oc2ncc(CC(C)C)cc21 (stereo not shown)
### Response 7.60

### Prompt If you can, please state the reported pIC50 value of `COCC(=O)N[C@@H](Cc1ccnc(OCC(F)(F)F)c1)[C@H](O)CN[C@H]1CC2(CCC2)Oc2ncc(CC(C)(C)C)cc21` .
### Response 7.96

### Prompt // query pIC50 value for entry `CC(=O)Nc1cnc2c(c1)[C@@H](NC[C@@H](O)[C@H](Cc1ccc(F)cc1)NC(C)=O)CC1(CCC1)O2`
### Response 6.23
